test: Rota-rod test in rats (motor coordination); details: rat, po
REPORTED_ENDPOINT: TD50 (mg/kg)
Give just the number in mg/kg; leave the unit off.

Q: TD50 lookup needed for NC(=O)CCN1CCN(C2Cc3cc(Cl)ccc3Sc3cc(F)ccc32)CC1 (stereo not shown) [Compound A] , thanks.
Result: 19.5

---

test: in vivo; conditions: mouse, po, LD50, female mice, 48 h, per base
REPORTED_ENDPOINT: LD50 at 48 h (mg/kg)
Give just the number in mg/kg; leave the unit off.

Q: LD50 at 48 h lookup needed for NC(=O)CCN1CCN(C2Cc3cc(Cl)ccc3Sc3cc(F)ccc32)CC1 (stereo not shown) , thanks.
Result: 316

These data points were gathered from patent US4678788A.
